Kindly supply the reported inhibition at 2.5 µM values for the records listed here.
# system.tested: outer ubiquinone binding site of complex III (IIIQO) (Rattus norvegicus, UniProt P00159+P20788)
# Construct: freshly isolated muscle mitochondria were assayed; from tissue; host or cells: rat skeletal muscle mitochondria (Wistar, Harlan Laboratories)
# protocol.notes: High-throughput screen: ROS production from outer ubiquinone binding site of complex III (IIIQO)
# Assay type: biochemical
# conditions: Table 9; percent change in ROS from DMSO controls; read-out: IIIQo
Answers are plain numbers, in %.

Check out these entries, answers already filled in.
molecule	observed.measurement
COc1cc(CN(CCN(C)C)Cc2ccccc2)cc(OC)c1	1.4
C=C(C)CN(CC)Cc1cc([N+](=O)[O-])ccc1Cl	20.2
Cl.OC12CCCCC1C(c1cccc(Cl)c1)NCC2 (centres unmarked)	9.8
CC(C)(C)C1=NN(c2c(Cl)cc(Cl)cc2Cl)C(=O)C1	-1

Now look at this entry.
In: Entry O=C(Nc1ccc(Br)cc1)[C@@H]1C2C=CC(C2)[C@@H]1C(=O)O (some centres unmarked) : reported inhibition at 2.5 µM = ?
Out: 2.5

----------
# system.tested: glycerol-3-phosphate dehydrogenase (GPDH) (Rattus norvegicus)
# Construct: The activity of GPDH in intact mitochondria (0.3 mg/mL) was measured; from tissue; host or cells: rat skeletal muscle mitochondria (Wistar, Harlan Laboratories)
# Sequence (P35571 43-727): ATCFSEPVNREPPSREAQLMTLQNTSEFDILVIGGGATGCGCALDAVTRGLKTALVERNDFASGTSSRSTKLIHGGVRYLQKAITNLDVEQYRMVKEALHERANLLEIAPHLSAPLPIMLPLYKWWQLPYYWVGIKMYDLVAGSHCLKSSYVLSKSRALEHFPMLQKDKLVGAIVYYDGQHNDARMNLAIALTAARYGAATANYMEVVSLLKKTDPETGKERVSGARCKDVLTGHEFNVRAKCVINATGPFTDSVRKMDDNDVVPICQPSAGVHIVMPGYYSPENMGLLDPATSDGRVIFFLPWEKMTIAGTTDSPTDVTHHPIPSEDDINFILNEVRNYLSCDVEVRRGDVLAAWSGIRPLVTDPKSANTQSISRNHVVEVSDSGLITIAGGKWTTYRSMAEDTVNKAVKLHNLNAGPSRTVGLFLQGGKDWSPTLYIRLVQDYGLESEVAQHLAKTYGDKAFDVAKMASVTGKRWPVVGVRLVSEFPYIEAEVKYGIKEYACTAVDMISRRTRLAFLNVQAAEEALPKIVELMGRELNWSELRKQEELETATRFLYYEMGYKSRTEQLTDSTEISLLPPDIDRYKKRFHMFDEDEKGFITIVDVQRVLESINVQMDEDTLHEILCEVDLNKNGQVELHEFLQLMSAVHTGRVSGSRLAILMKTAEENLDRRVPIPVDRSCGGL
# protocol.notes: High-throughput screen: ROS production from glycerol-3-phosphate dehydrogenase (GPDH)
# Type: biochemical
# conditions: Table 8; percent change in ROS from DMSO controls
Kindly supply the reported GPDH values for the records listed here.
Numbers only.

molecule	GPDH
CN(C)CCN(Cc1ccccc1)Cc1ccc(C(F)(F)F)cc1	−2.4
O=[N+]([O-])c1ccc(Oc2ccc(S(=O)(=O)Nc3ccc4c(c3)OCCO4)cc2)cc1	−3.3
CC(=O)Nc1ccc(S(=O)(=O)Nc2cccc(C)c2)cc1	−4.3

Please state, for each entry, its recorded GPDH.
1. COc1cccc(CCNC2C3CC4CC(C3)CC2C4)c1 (stereo not shown)
2. Cc1ccc(C(C)C)c(OCC(O)CN2CCN(Cc3ccccc3)CC2)c1.Cl.Cl (stereo not shown)
3. CC(C)(C)C1=NN(c2c(Cl)cc(Cl)cc2Cl)C(=O)C1
4. Fc1ccc(N2CCN(CC(c3ccccc3)c3ccccc3)CC2)cc1
5. CC(C)Cc1ccc(C(C)C(=O)Nc2ccccc2O)cc1 (stereo not shown)
6. Cc1cc(OCC(O)CN(Cc2ccccc2)C(C)(C)C)ccc1[N+](=O)[O-] (stereo not shown)
7. Fc1ccc(SCCc2ccccn2)cc1
8. CN(C)CCCN(CCCN(C)C)Cc1cccnc1

Out:
−3.3
−1.8
−0.1
−4.7
0.7
0
−0.3
−12.7

Please state, for each entry, its recorded GPDH.
1. CC(C)(C)NS(=O)(=O)c1ccc2c(c1)C(=O)c1ccccc1C2=O
2. COc1ccc(NS(=O)(=O)c2cccc(C(=O)Nc3ccc(C)cc3)c2)cc1
3. O=C(COc1ccc(Cl)cc1Cl)Nc1ccc(F)cc1F
4. O=C(O)CSc1cccc(C(=O)Nc2ccc(Br)cc2)c1
5. CC1=CC(C)(C)N(Cc2ccc([N+](=O)[O-])cc2)c2ccccc21

Out:
1: 4.1; 2: −5.0; 3: −2.0; 4: −14.1; 5: −0.6

Please state, for each entry, its recorded GPDH.
1. O=C(Nc1ccccc1C(=O)O)c1ccccc1
2. CC1=CC(C)C(C2OCC(CN3CCCCC3)O2)C(C)C1 (stereo not shown)
3. O=C(Nc1ccccc1[N+](=O)[O-])c1cccc(S(=O)(=O)Nc2ccccc2)c1

Out:
1: −0.6; 2: −1.2; 3: −2.4

----------
# system.tested: outer ubiquinone binding site of complex III (IIIQO) (Rattus norvegicus, UniProt P00159+P20788)
# Construct: freshly isolated muscle mitochondria were assayed; from tissue; host or cells: rat skeletal muscle mitochondria (Wistar, Harlan Laboratories)
# protocol.notes: High-throughput screen: ROS production from outer ubiquinone binding site of complex III (IIIQO)
# Format: biochemical
# conditions: Table 7; percent change in ROS from DMSO controls; read-out: IIIQO
Kindly supply the reported inhibition at 2.5 µM values for the records listed here.
Answers are plain numbers, in %.

compound	inhibition at 2.5 µM, %
Cc1ccc2[nH]c(-c3ccc(NC(=O)CCC(=O)O)cc3)nc2c1	0.4
O=C(O)CCC(=O)Nc1ccc(-c2nc3ccccc3o2)cc1	-2.5
O=C(Nc1ccc(Br)cc1)[C@@H]1C2C=CC(C2)[C@@H]1C(=O)O (stereo partly drawn)	2.5
COC(=O)c1ccc(CN(CCc2ccccc2)Cc2ccccc2)cc1	23.2
CC(=O)Nc1ccc(-c2nc3ccccc3[nH]2)cc1	1.3

Please state, for each entry, its recorded inhibition at 2.5 µM.
1. COc1cccc(/C=C/C(=O)c2c(O)cc(C)oc2=O)c1O
2. COc1cccc(CCNC2C3CC4CC(C3)CC2C4)c1 (stereo not drawn)
3. O=C(Nc1ccc(-c2nc3ccccc3[nH]2)cc1)C1CC1
4. CCN1CCN(C/C=C/c2ccc(N(C)C)cc2)CC1
5. O=S(=O)(Nc1ccc(Br)cc1)c1ccc(C2CCCCC2)cc1
6. CC(C)Cc1ccc(C(C)C(=O)Nc2ccccc2O)cc1 (stereo not drawn)
7. Cc1cc(C)c(S(=O)(=O)N2CCCC2=O)c(C)c1
8. O=C(O)C1CCCCC1C(=O)NC1CCCCCCC1 (stereo not drawn)

Out:
6
1.8
1.2
5.7
-7.6
3.6
25.1
-0.1

----------
# system.tested: flavin binding site of complex I (IF) (Rattus norvegicus, UniProt Q5XIH3)
# Construct: freshly isolated muscle mitochondria were assayed; from tissue; host or cells: rat skeletal muscle mitochondria (Wistar, Harlan Laboratories)
# Sequence (Q5XIH3 21-464 limits assumed, one chain of several): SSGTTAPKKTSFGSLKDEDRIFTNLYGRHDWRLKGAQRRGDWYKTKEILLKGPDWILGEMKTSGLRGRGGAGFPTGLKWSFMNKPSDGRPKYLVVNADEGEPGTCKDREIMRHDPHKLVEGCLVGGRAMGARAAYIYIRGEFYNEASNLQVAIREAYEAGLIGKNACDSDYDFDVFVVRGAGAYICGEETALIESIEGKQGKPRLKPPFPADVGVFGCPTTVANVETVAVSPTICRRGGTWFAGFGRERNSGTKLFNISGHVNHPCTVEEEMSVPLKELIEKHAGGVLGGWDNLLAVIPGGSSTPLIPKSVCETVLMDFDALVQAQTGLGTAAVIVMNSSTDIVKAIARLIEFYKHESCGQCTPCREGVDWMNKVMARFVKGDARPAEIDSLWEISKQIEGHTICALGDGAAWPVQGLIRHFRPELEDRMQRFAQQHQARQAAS
# protocol.notes: High-throughput screen: ROS production from flavin binding site of complex I (IF)
# Format: biochemical
# conditions: Table 9; percent change in ROS from DMSO controls
Parameter class (string): assigned from measured IF. Ranges: low band (below -20), middle band (-20 to below 0.2), high band (0.2 or more)

Use these answered entries as a reference point.
molecule	answer.label
O=C(O)C1CCCCC1C(=O)NC1CCCCC1 (stereo not shown)	low band
O=[N+]([O-])c1ccc(Oc2ccc(S(=O)(=O)NC3CCCCC3)cc2)cc1	high band
O=C(O)C1CCCCC1C(=O)NC1CCCCCCC1 (stereo not shown)	low band
CC(C)(C)C1=NN(c2c(Cl)cc(Cl)cc2Cl)C(=O)C1	high band
COC(=O)c1ccc(CN(CCc2ccccc2)Cc2ccccc2)cc1	middle band

In: Which of the defined bands does the recorded IF of `CC(C)(C)NS(=O)(=O)c1ccc2c(c1)C(=O)c1ccccc1C2=O` sit within?
Out: high band

In: Okay, and `O=C(O)CSc1cccc(C(=O)Nc2ccc(Br)cc2)c1` ?
Out: middle band

----------
# system.tested: succinate dehydrogenase/complex II (SDH) (Rattus norvegicus, UniProt P21913+Q641Z9+Q6PCT8+Q920L2)
# Construct: freshly isolated muscle mitochondria were assayed; from tissue; host or cells: rat skeletal muscle mitochondria (Wistar, Harlan Laboratories)
# Sequence (Q920L2 35-656): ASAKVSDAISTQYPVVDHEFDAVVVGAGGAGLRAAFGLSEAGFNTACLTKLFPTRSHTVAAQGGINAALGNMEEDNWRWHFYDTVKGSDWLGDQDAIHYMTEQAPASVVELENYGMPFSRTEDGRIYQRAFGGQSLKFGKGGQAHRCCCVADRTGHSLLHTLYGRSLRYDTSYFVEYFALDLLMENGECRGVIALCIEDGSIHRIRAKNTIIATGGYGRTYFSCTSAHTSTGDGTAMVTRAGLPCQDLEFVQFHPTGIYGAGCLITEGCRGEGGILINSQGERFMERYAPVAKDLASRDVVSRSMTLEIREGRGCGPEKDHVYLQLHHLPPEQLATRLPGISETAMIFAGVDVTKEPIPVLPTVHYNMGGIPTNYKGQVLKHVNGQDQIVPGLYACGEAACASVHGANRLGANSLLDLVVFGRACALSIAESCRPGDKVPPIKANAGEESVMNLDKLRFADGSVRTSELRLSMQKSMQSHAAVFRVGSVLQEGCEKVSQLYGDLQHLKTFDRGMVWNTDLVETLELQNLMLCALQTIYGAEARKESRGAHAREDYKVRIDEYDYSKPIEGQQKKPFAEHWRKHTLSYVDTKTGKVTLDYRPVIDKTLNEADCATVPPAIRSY
# Sequence (P21913 31-282): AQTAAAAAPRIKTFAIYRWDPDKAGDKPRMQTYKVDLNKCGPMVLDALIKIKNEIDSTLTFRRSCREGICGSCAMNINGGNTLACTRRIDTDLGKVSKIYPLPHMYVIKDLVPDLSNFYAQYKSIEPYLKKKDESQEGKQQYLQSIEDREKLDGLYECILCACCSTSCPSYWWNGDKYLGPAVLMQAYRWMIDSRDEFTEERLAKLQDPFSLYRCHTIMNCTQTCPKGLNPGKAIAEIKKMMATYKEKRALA
# Sequence (Q641Z9 30-169 limits assumed): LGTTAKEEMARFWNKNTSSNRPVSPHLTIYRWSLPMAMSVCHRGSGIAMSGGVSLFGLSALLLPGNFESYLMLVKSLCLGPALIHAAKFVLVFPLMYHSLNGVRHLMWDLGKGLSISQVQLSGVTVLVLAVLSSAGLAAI
# Sequence (Q6PCT8 57-159): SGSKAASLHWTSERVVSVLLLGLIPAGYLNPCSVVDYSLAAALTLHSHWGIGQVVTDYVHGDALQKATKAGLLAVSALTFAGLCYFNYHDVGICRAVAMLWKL
# protocol.notes: High-throughput screen: ROS production from succinate dehydrogenase/complex II (SDH)
# Format: biochemical
# conditions: Table 8; percent change in ROS from DMSO controls
Label true (1) when SDH >= 0.4; otherwise false (0).

Use these answered entries as a reference point.
molecule	answer.label
O=C(O)CSc1cccc(C(=O)Nc2ccc(Br)cc2)c1	true (1)
Cc1ccccc1NS(=O)(=O)c1ccc(-c2ccc(S(=O)(=O)Nc3ccccc3C)cc2)cc1	false (0)
O=[N+]([O-])c1ccc(Oc2ccc(S(=O)(=O)NC3CCCCC3)cc2)cc1	true (1)
Cc1ccc(S(=O)(=O)Nc2nnc(C)s2)cc1	true (1)
CCCN(CCO)Cc1ccc2c(c1)c1ccccc1n2CC	false (0)

In: Test whether the molecule Cc1cc(OCC(O)CN(Cc2ccccc2)C(C)(C)C)ccc1[N+](=O)[O-] (stereo not drawn) records SDH of 0.4 or higher.
Out: false (0)

In: Okay, and Cl.OC12CCCCC1C(c1cccc(Cl)c1)NCC2 (stereo not drawn) ?
Out: false (0)

In: Okay, and `O=C(O)/C=C/C(=O)Nc1ccc(/C=C/c2ccccc2)cc1` ?
Out: false (0)

----------
Kindly supply the reported inhibition at 2.5 µM values for the records listed here.
# system.tested: outer ubiquinone binding site of complex III (IIIQO) (Rattus norvegicus, UniProt P00159+P20788)
# Construct: freshly isolated muscle mitochondria were assayed; from tissue; host or cells: rat skeletal muscle mitochondria (Wistar, Harlan Laboratories)
# protocol.notes: High-throughput screen: ROS production from outer ubiquinone binding site of complex III (IIIQO)
# Assay type: biochemical
# conditions: Table 9; percent change in ROS from DMSO controls; read-out: IIIQo
Answers are plain numbers, in %.

Check out these entries, answers already filled in.
molecule	units	inhibition at 2.5 µM
COc1ccc(C2C(C#N)=C(N)Oc3c2c(=O)oc2ccccc32)cc1O (centres unmarked) [Compound 74]	%	7.6
c1cc2c3c(ccc(CSCCc4ccncc4)c3c1)CC2 [Compound 36]	%	33.6
COc1cccc(/C=C/C(=O)c2c(O)cc(C)oc2=O)c1O [Compound 17]	%	6
CCSC1=C(C#N)C2(CCCC2)C(C#N)C(=O)N1 (centres unmarked) [Compound 2]	%	-1.9

Now look at this entry.
In: Entry CC(C)Cc1ccc(C(C)C(=O)Nc2ccccc2O)cc1 (centres unmarked) [Compound 5] : reported inhibition at 2.5 µM = ?
Out: 3.6
